# Tested Target: T1, monovalent hVISTA-ECD (human VISTA extracellular domain with His tail) (human, UniProt Q9H7M9 33-193)
# T1 construct: analyte flowed over captured antibody; also called huVISTA-His
# T1 sequence (Q9H7M9 other isoform, or with tags, fused parts or gaps limits assumed): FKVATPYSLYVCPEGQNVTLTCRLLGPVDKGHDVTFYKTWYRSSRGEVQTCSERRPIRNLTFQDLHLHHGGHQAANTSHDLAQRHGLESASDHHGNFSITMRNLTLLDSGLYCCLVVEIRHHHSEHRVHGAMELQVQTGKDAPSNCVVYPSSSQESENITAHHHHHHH
# Experimental Protocol: SPR, pH 6.0
kon values by entry
Give just the number in M⁻¹ s⁻¹; leave the unit off.

Binder	Endpoint Label	Result Units	Observed Result
P1-064392 (41F11_HC_Mutant: D31E/Y50W/S55E/Y100E 41F11_LC_Mutant: V29D/A64G/Q89E/R91T) (antibody, V domains shown, Kabat positions; also called P1-064392-1) VH: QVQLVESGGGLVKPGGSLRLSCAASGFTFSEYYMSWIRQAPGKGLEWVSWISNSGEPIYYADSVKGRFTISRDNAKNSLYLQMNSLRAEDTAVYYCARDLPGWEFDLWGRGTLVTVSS VL: EIVLTQSPATLSLSPGERATLSCRASQSDSSYLAWYQQKPGQAPRLLIYDASNRATGIPARFSGSGSGTDFTLTISSLEPEDFAVYYCEQTNNWPRTFGQGTKVEIK	kon	M⁻¹ s⁻¹	4.8e+06

Now for the binder whose kon we want.
Recorded kon (binder P1-065064 (41F11_LC_Mutant: V29D/A64G/R91T) (antibody, V domains shown, Same printed description as P1-063001 under another ID; also called P1-065064-1) VH: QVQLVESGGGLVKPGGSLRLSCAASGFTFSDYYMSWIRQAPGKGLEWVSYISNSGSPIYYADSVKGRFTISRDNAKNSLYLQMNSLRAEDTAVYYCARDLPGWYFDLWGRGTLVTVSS VL: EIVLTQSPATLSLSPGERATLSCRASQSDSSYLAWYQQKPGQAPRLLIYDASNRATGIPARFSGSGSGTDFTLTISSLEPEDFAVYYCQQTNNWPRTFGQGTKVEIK ): 1.3e+06
